Target: soluble IL-6R in cynomolgous plasma (cynomolgus monkey, UniProt A0A2K5WN54)
Assay: ELISA 2, periplasmic extract; competitor IL-6; cyno plasma
measure: OD450 ratio sample/blank

Solved cases below.
IL6RPMP107H2 (VHH) VHH: KVQLVESGGGLVQPGGSLRLSCAASGFTFSSYAMSWVRRAPGKGLEWVSAINSDGTGSSYAPFVTGRFTASRDNAKNTLYLQMNSLKPEDTAVYYCTNSNRYDYADFSAVRGQGTQVTVSS: 0.6
IL6RPMP105D3 (VHH) VHH: EVQLEESGGGLVQAGGSLRLSCAASGSIFRINAMGWYRQAPGKQRELVAAAISGGSTNYADFVKGRFTISRDNAKNTVYLQMNSLKPEDTAVYYCNALVVSHNYSDYVPFPDDYWGQGTQVTVSS: 0.995
IL6RPMP103A5 (VHH) VHH: EVQLVESGGGLVQAGDSLRLSCVASGLPFSTLHMGWFRQAPGKEHESVSAISSDGGSEYYAGSVKGRFTISRDNAKNTVYLQMNSLKPEDTAVYYCAADPRRIGANIKYSDYWGQGTQVTVSS: 0.859
IL6RPMP107B4 (VHH) VHH: EVQLVESGGGLVQAGGSLRLSCVASGLRLNMHRMGWFRQAPGKEREFVARIFTDDGDSYYADSVQGRFTISGDNAKNTVYLQMNSLKPEDTGVYFCAAGYMSGAESPIGYDNWGQGTQVTVSS: 0.918
IL6RPMP101C2 (VHH) VHH: EVQLVESGGGLVQAGGSLRLSCTASGRTFSDYDMGWFRQAPGKERECVAIIDTNGDNTLIVGSVKGRFAISSDNAKNTVYLQMNSLLPEDTAVYTCAAGVWSSLRHTAANYWGQGTQVTVSS: 1.03
IL6RPMP108E9 (VHH) VHH: EVQLVESGGGLVQAGGSLRLSCAFSRRSFGNFPMGWFRQRPGEEREYVAVISWNNNYIHYRDSVKGRFTASRDTSENRMYLQMNGLKPEDTAVYYCAARTKDNTLFTPAEEYDYWGQGTQVTVSS: 0.961
IL6RPMP101A4 (VHH) VHH: EVQLVESGGGTVQAGGSLKLSCAASGRTFTNYAMGWFRQAPGKEREFVAAIAYATHFADSVKGRFTISRGNAKNTVYLQMNSLKPEDAAVYYCAADLSLSKMVSKITSDMDYWGKGTLVTVSS: 0.713
IL6RPMP105H10 (VHH) VHH: EVQMVESGGGLVQAGGSLRLSCAASGFAFDDYAIGWFRQAPGKEREGVSSISSSNGNTYYADSVRGRFTISSDNAKNTVYLQMNSLKPEDAGVYYCAAIWGIFFNEKMPVGAYDYWGQGTQVTVSS: 0.679
IL6RPMP101B3 (VHH) VHH: EVQLVESGGGLVQAGGSLRLSCAASGSIFRINAMGWYRQAPGKQRELVAAAISGGSTNYADFVKGRFTISRDNAKNTVYLQMNSLKPEDTAVYYCNALVVSHNYSDYVPFPDDYWGQGTQVTVSS: 1.05
IL6RPMP120D2 (VHH) VHH: EVQLVESGGGLVQAGGSLSLSCATSGRTISDDTMAWFRQAPGKEREFVATITFSGARTHYSDSVRDRFTISRDNAKNTVYLQMNSLKSEDTAVYYCAASTKYYSSTYNYIHPAFYDIWGQGTQVTVSS: 0.158

Value of OD450 ratio sample/blank reported for the binder IL6RPMP101D1 (VHH) VHH: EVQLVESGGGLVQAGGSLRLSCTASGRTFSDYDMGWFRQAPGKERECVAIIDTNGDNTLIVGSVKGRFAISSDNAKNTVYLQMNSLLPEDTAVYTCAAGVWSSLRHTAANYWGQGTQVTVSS is 0.79

Value of OD450 ratio sample/blank reported for the binder IL6RPMP106D6 (VHH) VHH: EVQLVESGGGLVQAGGSLRLSCAASGFTFDDYAIGWFRQAPGKEREGVSCMISSDGSTYYADSVKGRFTISSDNAKNTVYLQMDSLKPEDTAVYYCAADLSLYGCYVGDRDLYDYDYWGQGTQVTVSS is 1.13

Value of OD450 ratio sample/blank reported for the binder IL6RPMP120C11 (VHH) VHH: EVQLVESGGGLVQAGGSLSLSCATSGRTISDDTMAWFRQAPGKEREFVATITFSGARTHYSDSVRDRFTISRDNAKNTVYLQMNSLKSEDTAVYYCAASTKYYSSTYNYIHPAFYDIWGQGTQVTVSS is 0.296

Value of OD450 ratio sample/blank reported for the binder IL6RPMP107A9 (VHH) VHH: EVQLVESGGGLVQAGGSLRLSCAASGGIFSDMFMGWFRQAPGKSRESVARISPSGNTFYQDSVRGRFTISTDNAKNTVYLQMNNLKPEDTAVYYCAANVGVTGSYEYWGQGTQVTVSS is 0.0867

Value of OD450 ratio sample/blank reported for the binder IL6RPMP108E1 (VHH) VHH: EVQLVESGGGLVQAGGSLRLSCAASGFTFDDYDIGWFRQAPGKEREGVSGISSSDGNTYYADSVKGRFTISSDNAKNTVYLQMNSLKPEDTAVYYCAAEPPDSSWYLDGSPEFFKYWGQGTQVTVSS is 0.359
